Cited source for all entries: patent US20030119727A1

- measuredOn: T1, recombinant human Factor VIIa (human), P08709
- T1 chain 1: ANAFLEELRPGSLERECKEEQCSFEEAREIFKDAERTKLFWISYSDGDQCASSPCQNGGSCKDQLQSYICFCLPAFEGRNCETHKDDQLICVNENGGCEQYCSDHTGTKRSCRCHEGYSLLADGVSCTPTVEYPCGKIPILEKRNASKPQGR
- T1 chain 2: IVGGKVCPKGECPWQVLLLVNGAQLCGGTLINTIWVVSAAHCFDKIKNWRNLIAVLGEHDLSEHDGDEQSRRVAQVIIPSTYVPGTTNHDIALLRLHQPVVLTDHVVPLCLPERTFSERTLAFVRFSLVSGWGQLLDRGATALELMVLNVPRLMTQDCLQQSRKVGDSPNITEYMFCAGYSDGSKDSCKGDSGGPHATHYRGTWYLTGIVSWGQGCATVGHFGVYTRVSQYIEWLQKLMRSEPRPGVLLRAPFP
- testDetails: competition ELISA
- experimentalContext: modification not given
endpointLabel: pIC50
Hey, just a heads up that pIC50 is the negative log base 10 of the concentration in molar.

ALCDDPRVDRWFCQFVEG [TF144] :: 6.31
EGTLCDDPRIDRWYCMFSGV [TF58] :: 5.64

Please examine the following record next.
Query: pIC50; subject: ALCDDARVDRWYCQFVEG [TF178]
7.70
